biological target: Receptor tyrosine-protein kinase erbB-2 (Homo sapiens); experiment: reducers of endogenous Her2 protein level, primary screen, SKBR3 breast tumor cells, AlphaScreen, ATP viability (AID 461); conditions: 18-24 h, at 10 µM, stronger effect = lower value;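 as to Her2 level: lower value means less Her2 protein in the cells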;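 as to viability: percent of carrier control wells set as 100% viability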
Quick list: Her2 level per entry.
State just the number; it will be interpreted in %.

Worked examples follow.
{"columns": ["compound", "unit annotation", "Her2 level"],
 "data": [
  ["Cc1ccc(C)c(OCCCC(C)(C)C(=O)O)c1", "%", 104],
  ["CCOC(=O)c1ccccc1NC(=O)c1cc2sccc2n1C", "%", 96],
  ["O=C(NCc1nnc(SCC(=O)N2CCCCCC2)o1)c1ccco1", "%", 100],
  ["CCC(=O)N1CCNC(=O)C1CC(=O)Nc1ccc(C)c(Cl)c1 (stereo unspecified)", "%", 122],
  ["C=CCn1cc(C(=O)NCCOC)c(=O)c2cc(S(=O)(=O)N(CC)CC)ccc21", "%", 93.5]
]}

Task: Query: Her2 level; subject: O=C(O)COc1ccc(Oc2ccccc2)cc1
Output: 106

Task: Entry to check: CCOc1ccc(Cl)cc1S(=O)(=O)N1CCCC1
Output: 94.5

Task: One more compound: O=C(CCCC(=O)N(CC(=O)NC1CCCCC1)Cc1ccc2c(c1)OCO2)Nc1ccccn1
Output: 97.5

----------
// reported inhibition per item
test: growth suppression of yeast trafficking mutant, preliminary HTS, modulators of trafficking downstream of Golgi apparatus project, 1536-format plate, OD 615 nm (AID 637); settings: yeast transport mutant growth, absorbance 615 nm, 18 h; stronger effect = higher value
Response body: numeric value in %, unit text excluded.

Task: Given CCOC(=O)c1[nH]nc(N)c1NC(=O)c1ccc(Cl)cc1Cl , state its recorded inhibition.
Output: 8.89

Task: Proceed to COCCCNC(=O)C(Cc1ccccc1)NS(=O)(=O)c1ccc2c(c1)c(=O)n(C)c(=O)n2C (stereo not drawn)
Output: -3.97

Task: Ok, now O=C(CSc1nnc(CNC(=O)c2cccs2)o1)Nc1cccc(C(F)(F)F)c1
Output: -7

Task: What do you have for COc1ccccc1NC(=O)C1CC(=O)N(c2ccc(F)cc2)C1 (stereo not drawn) ?
Output: 19.2

Task: Follow-up item: CNC(=O)c1nnn(Cc2ccccc2)c1NC(C)=O
Output: 12.5

Task: // query: COC(=O)N1CC(c2ccccc2)CC1=O (stereo not drawn)
Output: -6.51

Task: Another compound to look at: O=C(c1ccccc1)c1ccncc1
Output: 5.33

Task: Next: Cc1cccc(-c2nc(CN3CCCC(C(=O)NC4CCCC4)C3)c(C)o2)c1 (stereo not drawn)
Output: 2.9

----------
test: growth inhibitors of H69AR lung tumor, primary screen, human, duplicate replicates (AID 580); settings: H69AR lung tumor cells viability, ATP luminescence, 72 h; at 10 µM; stronger effect = lower value;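 also: 100% = mean luminescence of untreated wells and 0% = no signal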
Mark yes (1) for viability under 90%, no (0) if at or over.

Examples from the recorded data:
{"columns": ["molecule", "class label"],
 "data": [
  ["CC(=O)c1cc(F)c(N2CCN(C(=O)Cc3ccccc3)CC2)cc1C", "no (0)"],
  ["COc1ccc2c(c1OC)C(=O)OC2C1c2c(cc3c(c2OC)OCO3)CCN1C (stereo not drawn)", "yes (1)"]
]}

// next entry
Task: is_below(viability, 90%) for c1ccc(CCn2nnnc2C(c2cccs2)N2CCOCC2)cc1 (stereo not drawn) ?
Output: no (0)

----------
experiment: reducers of endogenous Her2 protein level, primary screen, SKBR3 breast tumor cells, AlphaScreen, ATP viability (AID 461); conditions: 18-24 h, measured here: SKBR3 viability, ATP luminescence, at 10 µM;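 as to viability: percent of carrier control wells set as 100% viability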
reported endpoint: viability (%)
Report only the number, with the unit % understood.

{"columns": ["compound", "viability / %"],
 "data": [
  ["COc1ccc(CN(CCN(C)C)c2ccccn2)cc1", 91],
  ["Cc1nn(-c2ccccc2)c2c1C(c1c(C)[nH]c(C#N)c1C)C(C#N)=C(N)O2 (centres undefined)", 88],
  ["COc1cccc(/C=N/n2c(C)nc3ccccc32)c1OC", 91],
  ["COC(=O)C1=C(C)OC(N)=C(C#N)C1c1c(C)nn(-c2ccccc2)c1Cl (centres undefined)", 89],
  ["Cc1ccc(SCc2[nH]nc3c2C(c2ccc(C)o2)C(C#N)=C(N)O3)cc1 (centres undefined)", 91],
  ["COc1ccc2c(c1)cc(C(=O)O)n2C", 92.5]
]}

Task: Fill in: viability of CCc1ccc(CNCc2cccnc2)cc1 is ___
Output: 91

Task: Next compound up: CCOC(=O)c1ccc(NC(=O)CSc2n[nH]c(-c3ccncc3)n2)cc1
Output: 87.5

Task: Now consider CCCCCC(=O)N1CC2(CC)CN(C(=O)CCCCC)CC(CC)(C1)C2=O .
Output: 89

----------
assay: SK-BR-3 cell growth inhibitors, pilot screen, 24 h, human (AID 572); details: SK-BR-3 viability, CellTiter-Glo luminescence, at 10 µM, stronger effect = lower value;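 also: compound exposure lasted between 18 and 24 h rather than exactly 24 h; 100% = carrier-treated control wells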
viability values for the compounds below.
Output spec: scalar in %, unitless text.

{"columns": ["compound", "viability / %"],
 "data": [
  ["Cn1cccc1Cc1nnc(SCC(=O)Nc2ccc(F)cc2)n1-c1ccc(F)cc1", 86],
  ["O=C1CC(Cc2ccccc2)C(=O)N1CCCn1ccnc1 (centres undefined)", 101],
  ["CCC(C)(C)n1nnnc1C(c1cc2cc(OC)ccc2[nH]c1=O)N1CCc2ccccc21 (centres undefined)", 97],
  ["NC(=O)COC(=O)c1ccc(S(=O)(=O)N2CCCCCC2)cc1", 93],
  ["CCOC(=O)c1cc2n(n1)C(C(F)(F)C(F)(F)F)CC(C)N2 (centres undefined)", 92],
  ["CCOC(=O)N1CCN(C(=O)C2CC(=O)N(Cc3ccc(OC)cc3)C2)CC1 (centres undefined)", 96.5]
]}

Task: Item under review: O=C(CS(=O)(=O)c1cn(Cc2ccc(Cl)cc2)c2ccccc12)N1CCCC1 . Reported viability?
Output: 81.5

Task: And what about the compound O=C(CSc1nnc(CNC(=O)c2cccs2)o1)NCCc1ccccc1 ?
Output: 104

Task: Queued: CSCCC(NC(=O)c1ccco1)C(=O)O (centres undefined)
Output: 97.5

Task: Follow-up entry: CC/C(O)=C(/C#N)c1nnc2n1CCCCC2
Output: 100

Task: Please do the same for CCOC(=O)c1cc2c(=O)n3cccc(C)c3nc2n(CCc2ccccc2)c1=N as well.
Output: 82

Task: Lookup Cc1nn(-c2ccccc2)c2c1C(c1c(C)[nH]c(C#N)c1C)C(C#N)=C(N)O2 (centres undefined)
Output: 88

Task: Could you do the same for COc1ccc(NC(=O)CSc2nnc(-c3ccccc3C)n2C)cc1 , please?
Output: 96.5

Task: Try this compound next: COc1cccc(-c2noc(C3CCCN(C(=O)Cc4ccccc4)C3)n2)c1 (centres undefined)
Output: 95

Task: Another compound to look at: Nc1sccc1C(=O)c1ccccc1
Output: 85.5

Task: Follow-up item: CCCCOc1cc(=O)[nH]c(=O)[nH]1
Output: 108

Task: Thanks! And COC(=O)C1=C(C)NC(=O)C1(NC(=O)CN1CCCC1=O)C(F)(F)F (centres undefined) ?
Output: 116

Task: Request: c1ccc(-c2noc(C34CC5CC(CC(C5)C3)C4)n2)nc1
Output: 130

Task: Could you do the same for COc1cccc(OCC(O)CN2CCN(CCO)CC2)c1 (centres undefined) , please?
Output: 92.5

----------
experiment: viability gain of MRP-1-high H69AR cells under doxorubicin, pilot screen, MRP-1 activator project, CellTiter-Glo, duplicate (AID 807); conditions: H69AR viability with doxorubicin, CellTiter-Glo luminescence; at 10 µM; stronger effect = higher value;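 also: compound pretreatment 18-22 h then 72 h combined with doxorubicin; 0% = doxorubicin alone and 100% = vehicle without doxorubicin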
reported endpoint: viability increase (%)
Output spec: scalar in %, unitless text.

See these solved cases before continuing.
{"columns": ["compound", "viability increase, %"],
 "data": [
  ["CCc1cc(Br)ccc1N1C(=O)C2CC=CCC2C1=O (stereo not drawn)", 0.19],
  ["Cc1cc(C)n(S(=O)(=O)c2cccc(Cl)c2Cl)n1", -1.97],
  ["CCOc1ccc(N(CC(=O)NCc2ccccc2)S(C)(=O)=O)cc1", -1.14],
  ["COCCNC(=O)c1ccccc1NC(=O)C1COc2ccccc2O1 (stereo not drawn)", -0.74],
  ["CCOCCCNC(=O)C1CCC(CNS(=O)(=O)c2ccc(F)cc2)CC1 (stereo not drawn)", -2.28]
]}

Task: Entry under review: CC(C)=C1C2C=CC1C(C(=O)Nc1cc(C)ccc1C)C2C(=O)O (stereo not drawn) . Reported viability increase?
Output: -4.28

Task: Note, next up: c1coc(CNc2c3c(nc4ncnn24)CCCC3)c1
Output: -1.88

Task: Then what about the compound O=C(c1ccccc1Cl)N1CCC(c2nc3c(nnn3Cc3ccco3)c(=O)[nH]2)CC1 ?
Output: -4.32

Task: Another compound to check: CCOC(=O)Cn1c(=O)oc2cc(S(=O)(=O)NC3CCCc4ccccc43)ccc21 (stereo not drawn)
Output: -0.67

Task: Entry to check: Cc1ccn2c(-c3csc(NCc4ccco4)n3)c(C)nc2c1
Output: -4.37

Task: Repeat for the following compound: CCN1C(=O)CS/C1=N\c1nccs1
Output: 0.86

Task: Can you check NC(=O)c1ccsc1NC(=O)c1cccs1 next?
Output: -2.23

Task: Input OC(C#CCN1CCOCC1)c1cccs1 (stereo not drawn)
Output: -0.71

Task: What do you get for CCn1cc(C(=O)NCCCOC)c2cc(OC)c(OC)cc2c1=O ?
Output: -2.42

Task: Moving on to the next compound: CCN(C(=O)CSc1nnnn1-c1cc(C)ccc1OC)C1CCS(=O)(=O)C1 (stereo not drawn)
Output: -1.65

Task: How about COc1cccc(-c2nc(CS(=O)CC(=O)NC3CC3)c(C)o2)c1 (stereo not drawn) ?
Output: -2.91

Task: Next compound up: CCCCNC(=O)C1C2C=CC3(CN(Cc4ccc(C)cc4)C(=O)C13)O2 (stereo not drawn)
Output: -2.02

Task: Same lookup for CC(C)Sc1nc(-c2cccs2)nc2c1c(=O)n(C)c(=O)n2C , please.
Output: -6.85

Task: Quick one: Cc1nc2sc(C(c3ccco3)N3CCN(c4ccc(F)cc4)CC3)c(O)n2n1 (stereo not drawn)
Output: -0.62

Task: O=C(COCCOCC(=O)N(c1ccccn1)C1CCCCC1)N(c1ccccn1)C1CCCCC1 , same question.
Output: -2.48

Task: Also check CCc1ccc(-c2nc(CSCC(=O)N3CCN(c4ncccn4)CC3)c(C)o2)cc1
Output: -3.72

Task: Now consider CCOC(=O)c1c(NC(=O)C2CCCN2S(=O)(=O)c2cccc3nsnc23)sc(C)c1C (stereo not drawn) and answer again.
Output: 0.59

Task: Cc1cc(C(=O)N2CCN(c3ccccn3)CC2)c(C)o1 ?
Output: -5.92

Task: Same question for CCCNc1nc2c(c(=O)[nH]c(=O)n2C)n1CCc1ccccc1 please.
Output: -1.3

Task: Entry to check: COc1ccc(CCNC(=O)c2ccco2)cc1
Output: -2.79
